Each recorded value in this set is attributed to patent US7064128B2.

Target: L-type channels (α1C+α2δ+β1b cDNA subunits)
Construct: other: α1C (L-type), 100 nM, 0.03 Hz; other: α1C (L-type), 100 nM, 0.2 Hz; other: α1C (L-type), 0.03 Hz; other: α1C (L-type), 0.2 Hz
Assay: Whole cell patch clamp, tonic and frequency dependent block, L-type channels in HEK 293 (Example 5)
Type: cell-based
Settings: α1C (L-type), 0.03 Hz; read-out: Estimated IC50 (μM) 0.03 Hz
Experimental: N-type calcium channel blocking activity was assayed in human embryonic kidney cells, HEK 293, stably transfected with the rat brain N-type calcium channel subunits (α1B+α2δ+β1b cDNA subunits). […] Whole cell patch clamp experiments were performed using an Axopatch 200B amplifier (Axon Instruments, Burlingame, Calif.) linked to a personal computer equipped with pCLAMP software. […] Data were analyzed using Clampfit (Axon Instruments) and SigmaPlot 4.0 (Jandel Scientific). […]
Doc: threshold 0.6 µM (exclusive). Items with IC50 beneath it return Condition met; others return Condition not met.

These solved cases illustrate the format of a correct answer.
[
  {
    "compound": "O=C(/C=C/c1ccc2c(c1)OCO2)N1CCN(C(=O)CCCCC(c2ccccc2)c2ccccc2)CC1 [SH-123B]",
    "assigned_label": "Condition not met"
  },
  {
    "compound": "O=C(CCCCC(c1ccccc1)c1ccccc1)N1CCC(NCC2CCCCC2)CC1",
    "assigned_label": "Condition not met"
  },
  {
    "compound": "O=C(CCCCC(c1ccccc1)c1ccccc1)N1CCN(C/C=C/c2ccccc2)CC1 [MC-34D]",
    "assigned_label": "Condition not met"
  },
  {
    "compound": "Nc1ccc(/C=C/C(=O)N2CCN(C(=O)CCCCC(c3ccccc3)c3ccccc3)CC2)cc1",
    "assigned_label": "Condition not met"
  },
  {
    "compound": "O=C(CC(c1ccccc1)c1ccccc1)N1CCN(C(c2ccccc2)c2ccccc2)CC1",
    "assigned_label": "Condition met"
  },
  {
    "compound": "CC(=O)Nc1ccc(/C=C/C(=O)N2CCN(C(=O)CCCCC(c3ccccc3)c3ccccc3)CC2)cc1",
    "assigned_label": "Condition not met"
  }
]

Given COc1cc(C(=O)N2CCN(C(c3ccc(F)cc3)c3ccc(F)cc3)CC2)cc(OC)c1OC , is recorded IC50 strictly lower than 0.6 µM?
Condition not met

Would you kindly verify if IC50 of COc1ccc(/C=C/C(=O)N2CCN(C(=O)CCCCC(c3ccccc3)c3ccccc3)CC2)cc1 [SH-123A] is strictly less than 0.6 µM?
Condition not met

Does the reported IC50 of the following compound sit strictly below 0.6 µM? COc1ccc(CN2CCN(C(c3ccc(F)cc3)c3ccc(F)cc3)CC2)c(OC)c1OC [39-36-1 Lomerizine, Lomerizine, reference compound]
Condition met

Quick check: does COc1cc(CN2CCN(CCCCCC(c3ccc(F)cc3)c3ccc(F)cc3)CC2)cc(OC)c1OC have IC50 under 0.6 µM?
Condition not met
